- System: NCI/ADR-RES ovarian
- protocol.text: NCI-60 one-dose screen, 48 h (100 = growth as untreated, 0 = no growth, -100 = all killed)
- condition.parameters: 10 µM unless noted
The panel holds about 83,000 compounds, 20% with a hit somewhere; the sample as a whole holds those more often.
Label key: T means growth under 40%; F means growth of 40% or more.

Worked examples follow.
compound=Cc1oc(-c2ccc(Cl)cc2)nc1/C=C/C(=O)c1ccccc1 target_under_test="NCI/ADR-RES ovarian" class_label=F
compound=Fc1ccc(-c2nn(-c3ccccc3)cc2-c2nc3ccccc3o2)cc1 target_under_test="NCI/ADR-RES ovarian" class_label=F
compound=COc1cc(/C=C\c2cc(/C=C\c3ccc(O)c(OC)c3)n(C(=O)COc3ccc(Cl)cc3Cl)n2)ccc1O target_under_test="NCI/ADR-RES ovarian" class_label=T
compound=C=CCn1c(SCC(=O)Nc2ccc(C(=O)/C=C/c3ccc(Cl)cc3)cc2)nnc1-c1cc(-c2ccc(S(N)(=O)=O)cc2)nc2ccccc12 target_under_test="NCI/ADR-RES ovarian" class_label=F
compound=Cc1nc2c(=O)[nH]c(SCC(=O)Nc3cccc(F)c3)nc2[nH]c1=O target_under_test="NCI/ADR-RES ovarian" class_label=F

Problem: Here's an entry: C=C(C)[C@@H]1CC[C@]2(C(=O)O)CC[C@]3(C)[C@H](CC[C@@H]4[C@@]5(C)C[C@@H](Cc6cn(CCO[C@@H]7O[C@H](COC(C)=O)[C@H](OC(C)=O)[C@H](OC(C)=O)[C@H]7OC(C)=O)nn6)[C@H](O)C(C)(C)[C@@H]5CC[C@]43C)[C@@H]12 . Is its growth below 40%?
Solution: F

Problem: Now the compound O=C1/C(=C/c2ccc(Cl)cc2)COc2ccc(O)cc21
Solution: F

Problem: Now the compound Cc1ccc2c(n1)C(=O)c1[nH]c3ccccc3c1C2=O
Solution: F

Problem: Now the compound N=C(N)c1ccc(-c2ccc(-c3cc(Cl)cc(Cl)c3)o2)o1
Solution: T

----------
- Tested on: HCC-2998 colon
- protocol.text: NCI-60 one-dose screen, 48 h
- condition.parameters: 10 µM unless noted
About 83,000 compounds went through this panel and 20% of them were active in at least one assay; those are over-represented in the sample as a whole. Activity calls are given as the source filed them. How the source made its calls: active means growth percent below 10; inactive means the rest.
Respond with a class label; see active, inactive

Worked examples follow.
compound=CC1=Nc2cnc(Nc3ccc(OCCN4CCCC4)cc3)nc2Nc2ccccc21 target_under_test="HCC-2998 colon" class_label=inactive
compound="Nc1ncnc2c1N=C(c1ccc3c(c1)OCO3)CC(c1cccc(Nc3ccnc4cc(Cl)ccc34)c1)N2 (stereo not drawn)" target_under_test="HCC-2998 colon" class_label=inactive
compound="CCO/C=N/C1=C(C#N)C(c2ccc(OC)cc2)c2sc3c(F)cccc3c2O1 (stereo not drawn)" target_under_test="HCC-2998 colon" class_label=inactive
compound=COc1cc2oc(-c3cccc(NC(=O)c4cccc(Br)c4)c3)cc(=O)c2c(OC)c1OC target_under_test="HCC-2998 colon" class_label=inactive
compound=O=C1/C(=C/c2ccc(Cl)cc2)COc2ccc(O)cc21 target_under_test="HCC-2998 colon" class_label=inactive

Problem: Recorded test call requested for CCOC(=O)c1c(C)c2c(n1C)CSc1cc(C(=O)c3ccccc3)c(=O)[nH]c1-2
Solution: inactive

Problem: Now the compound CC(C)(C)n1cc(-c2ccnc(NCCNS(=O)(=O)c3cccc4ccccc34)c2)c(-c2cccc(F)c2)n1
Solution: active

Problem: Now the compound O=S(=O)(NCCCNc1nccc(-c2c(-c3ccc(F)c(O)c3)nc3occn23)n1)c1ccccc1
Solution: inactive

Problem: Now the compound CCc1ccc(C(=O)/C=C/C23c4ccccc4C(c4ccccc42)C2C(=O)NC(=O)C23)cc1 (stereo not drawn)
Solution: inactive

Problem: Now the compound CN(C)CCCC1(c2ccc(F)cc2)OCc2cc(-c3cccc4[nH]ccc34)ccc21 (stereo not drawn)
Solution: active

Problem: Now the compound CCOC(=O)c1c(NC(=O)c2ccc(C(C)C)cc2)sc2c(CN(C)C)c(O)ccc12
Solution: active

Problem: Now the compound N#CC1=C(N)Oc2c(sc3c(F)cccc23)C1c1ccc(F)cc1 (stereo not drawn)
Solution: inactive

Problem: Now the compound O=C1c2cccnc2C(=O)c2c1c(C(=O)NCCCN1CCCCC1)c1ccccn21
Solution: active
